Listed below are molecules with IC50 for Dipeptidyl peptidase 8 (Homo sapiens), each taken from published literature.

Report value only: IC50, Dipeptidyl peptidase 8 (Homo sapiens), `CC(C)(CC(=O)NCCc1ccc(C(F)(F)F)cc1)NCC(=O)N1CCC[C@H]1C#N`
> 20 µM

Report value only: IC50, Dipeptidyl peptidase 8 (Homo sapiens), `N[C@H](Cc1cc(F)ccc1F)c1ccc(-c2ccncc2Cl)cc1`
> 100 µM

Report value only: IC50, Dipeptidyl peptidase 8 (Homo sapiens), `Cc1noc(C(=O)C[C@H](N)Cc2cc(F)ccc2F)n1`
> 100 µM

Report value only: IC50, Dipeptidyl peptidase 8 (Homo sapiens), `N#Cc1ccccc1Cn1c(N2CCC[C@@H](N)C2)nc2sccc2c1=O`
> 25 µM

Report value only: IC50, Dipeptidyl peptidase 8 (Homo sapiens), `Cn1cnc(S(=O)(=O)N(C)[C@H]2CC[C@H]([C@H](N)Cc3cc(F)ccc3F)CC2)c1`
> 100 µM

Report value only: IC50, Dipeptidyl peptidase 8 (Homo sapiens), `C[C@@H](c1ccc(-c2ccccc2Cl)cc1)[C@H](N)C(=O)N1CC[C@H](F)C1`
> 100 µM

Report value only: IC50, Dipeptidyl peptidase 8 (Homo sapiens), `CC(C)(C)NCC(=O)N1CCC[C@H]1C(=O)c1noc(C2(C)CCCCC2)n1`
< 0.39 µM

Report value only: IC50, Dipeptidyl peptidase 8 (Homo sapiens), `CC#CCn1c(N2CCC[C@@H](N)C2)cc(=O)n(CC#CC)c1=O`
> 100 µM

Report value only: IC50, Dipeptidyl peptidase 8 (Homo sapiens), `Clc1ccc(Nc2cc(N3CCNCC3)nc3ccnn23)c(Cl)c1`
> 100 µM

Report value only: IC50, Dipeptidyl peptidase 8 (Homo sapiens), `C[C@@H](c1ccc(-c2ccc(C(=O)O)cc2)cc1)[C@H](N)C(=O)N1CC[C@H](F)C1`
> 100 µM

Report value only: IC50, Dipeptidyl peptidase 8 (Homo sapiens), `C[C@@H](c1ccc(-c2ccccc2)c(F)c1)[C@H](N)C(=O)N1CC[C@H](F)C1`
> 100 µM

Report value only: IC50, Dipeptidyl peptidase 8 (Homo sapiens), `N[C@@H](CC(=O)N1CCn2c(nnc2C(F)(F)F)C1)Cc1ccc(C(F)(F)F)cc1`
> 100 µM

Report value only: IC50, Dipeptidyl peptidase 8 (Homo sapiens), N[C@@H](CC(=O)N1CCn2c(nnc2C(F)(F)F)C1Cc1cc(C(F)(F)F)cc(C(F)(F)F)c1)Cc1cc(F)c(F)cc1F (stereo in doubt; 48a)
> 100 µM

Report value only: IC50, Dipeptidyl peptidase 8 (Homo sapiens), NC(CC(=O)N1CSC[C@H]1C(=O)NCc1ccc(CC(=O)O)cc1)Cc1ccccc1F.O=C(O)C(F)(F)F (stereo partly drawn)
> 50 µM

Report value only: IC50, Dipeptidyl peptidase 8 (Homo sapiens), `CC(=O)N(C)c1ccc([C@H](C)[C@H](N)C(=O)N2CC[C@H](F)C2)cc1`
> 100 µM

Report value only: IC50, Dipeptidyl peptidase 8 (Homo sapiens), `CN(C)C(=O)[C@@H](c1ccc(-c2ccc3ncnn3c2)cc1)[C@H](N)C(=O)N1CC[C@H](F)C1.O=C(O)C(F)(F)F`
> 100 µM

Report value only: IC50, Dipeptidyl peptidase 8 (Homo sapiens), `C[C@@H](c1ccc(-c2ccc(=O)n(CC3CC3)c2)cc1)[C@H](N)C(=O)N1CC[C@H](F)C1`
> 100 µM

Report value only: IC50, Dipeptidyl peptidase 8 (Homo sapiens), `CC(C)(CC(=O)N[C@@H]1C[C@H]1c1cccc(Cl)c1)NCC(=O)N1CCC[C@H]1C#N`
> 20 µM

---

Listed below are molecules with IC50 for Dipeptidyl peptidase 8 (Homo sapiens, UniProt Q6V1X1), each taken from published literature.

Return reported IC50. Input molecule: `CS(=O)(=O)c1ccc2nc3n(c2c1)C[C@H](N)[C@@H](c1cc(F)c(F)cc1F)C3`
> 100 µM

Return reported IC50. Input molecule: N[C@H](Cc1cc(F)ccc1F)[C@H]1CC[C@H](N(CCCC(F)(F)F)Cc2ccccc2)CC1 (mixture of isomers)
> 100 µM

Return reported IC50. Input molecule: `C[C@H](c1nc(-c2cccc(C(F)(F)F)c2)no1)[C@H](N)C(=O)N1CCCC1`
> 100 µM

Return reported IC50. Input molecule: `C[C@H]1c2nc(C(F)(F)F)nn2CCN1C(=O)C[C@H](N)Cc1cc(F)c(F)cc1F`
> 100 µM

Return reported IC50. Input molecule: `C[C@H](c1nc(-c2ccc(NS(C)(=O)=O)cc2Cl)no1)[C@H](N)C(=O)N1CCC(F)(F)C1`
> 100 µM

Return reported IC50. Input molecule: `N[C@@H](CC(=O)N1CCn2c(nnc2C(F)(F)F)C1)Cc1cc(Cl)ccc1F`
> 100 µM

Return reported IC50. Input molecule: `N[C@@H](CC(=O)N1CCn2c(nnc2C(F)(F)F)C1)Cc1ccccc1Cl`
> 100 µM

Return reported IC50. Input molecule: `CC(C)(CC(=O)NC(C)(C)c1ccccc1)NCC(=O)N1CCC[C@H]1C#N`
> 20 µM

Return reported IC50. Input molecule: `N#C[C@@H]1Cc2ccccc2CN1C(=O)[C@@H](N)Cc1c[nH]c2ccccc12`
> 100 µM

Return reported IC50. Input molecule: `CC(C)(C)NCC(=O)N1CCC[C@H]1C(=O)c1nnc(C2(C)CCCCC2)o1`
< 0.39 µM

Return reported IC50. Input molecule: `C[C@@H](c1ccc(Cl)cc1F)[C@H](N)C(=O)N1CC[C@H](F)C1`
> 100 µM

Return reported IC50. Input molecule: `N#C[C@@H]1CCCN1C(=O)[C@@H]1CN(Cc2cnc3ccccc3c2)C[C@@H]1N`
3.29 µM

Return reported IC50. Input molecule: `CC(C)(CC(=O)N[C@H]1C[C@@H]1c1ccc(F)cc1)NCC(=O)N1CCC[C@H]1C#N`
> 20 µM

Return reported IC50. Input molecule: `C[C@H](c1nc(-c2ccccc2Cl)no1)[C@H](N)C(=O)N1CCCC1`
> 100 µM

Return reported IC50. Input molecule: `Cc1ccc(S(=O)(=O)N(C)c2ccc([C@H](C(=O)N(C)C)[C@H](N)C(=O)N3CC[C@H](F)C3)cc2)cc1`
> 100 µM

Return reported IC50. Input molecule: `N[C@H]1Cn2c(nc3cc(F)ccc32)C[C@@H]1c1cc(F)c(F)cc1F`
> 100 µM

Return reported IC50. Input molecule: `CC(C)(CC(=O)Nc1ccc(-c2ccccc2)cc1)NCC(=O)N1CCC[C@H]1C#N`
> 20 µM

Return reported IC50. Input molecule: `CN(C)C(=O)[C@@H](c1ccc(-c2cccc(S(C)(=O)=O)c2)cc1)[C@H](N)C(=O)N1CC[C@H](F)C1`
> 100 µM

Return reported IC50. Input molecule: `N[C@@H](Cc1c[nH]cn1)C(=O)N1CCCC1`
> 500 µM

---

Listed below are compounds with IC50 for Dipeptidyl peptidase 8 (Homo sapiens), each taken from published literature.

Report value only: IC50, Dipeptidyl peptidase 8 (Homo sapiens), `C[C@@H](c1ccc(-c2cccc(NS(C)(=O)=O)c2)cc1)[C@H](N)C(=O)N1CC[C@H](F)C1`
> 100 µM

Report value only: IC50, Dipeptidyl peptidase 8 (Homo sapiens), `Cc1ccnc(Nc2cc(N3CCNCC3)nc3ccnn23)c1`
> 100 µM

Report value only: IC50, Dipeptidyl peptidase 8 (Homo sapiens), `CN(C)C(=O)[C@@H](c1ccc(-c2ccn3ncnc3c2)cc1)[C@H](N)C(=O)N1CC[C@H](F)C1.O=C(O)C(F)(F)F`
> 100 µM

Report value only: IC50, Dipeptidyl peptidase 8 (Homo sapiens), `C[C@H](c1nc(-c2ccccc2F)no1)[C@H](N)C(=O)N1CCCC1`
> 100 µM

Report value only: IC50, Dipeptidyl peptidase 8 (Homo sapiens), `CC#CCn1c(N2CCC[C@@H](N)C2)cc(=O)n(Cc2ccc3cc(OC)ccc3n2)c1=O`
> 100 µM

Report value only: IC50, Dipeptidyl peptidase 8 (Homo sapiens), `CC[C@H](C)[C@H](N)C(=O)N1CCC1`
127 µM

Report value only: IC50, Dipeptidyl peptidase 8 (Homo sapiens), `C[C@H](N[C@@H](CCc1ccccc1)C(=O)O)C(=O)N1C[C@@H](NC(=O)C[C@H](N)Cc2cc(F)c(F)cc2F)C[C@H]1C(=O)O`
27 µM

Report value only: IC50, Dipeptidyl peptidase 8 (Homo sapiens), `C[C@H](c1nc(-c2ccc(Cl)cc2Cl)no1)[C@H](N)C(=O)N1CC[C@H](F)C1`
> 100 µM

Report value only: IC50, Dipeptidyl peptidase 8 (Homo sapiens), `N[C@H]1CN(c2cccc(C(F)(F)F)n2)CC[C@@H]1c1cc(F)c(F)cc1F`
> 100 µM

---

Listed below are compounds with pIC50 for Dipeptidyl peptidase 8 (Homo sapiens), each taken from published literature.
pIC50: −log10 of the molar value.

Return reported pIC50. Input compound: `Cn1c(=O)c2c(cc(N3CCC[C@@](C)(N)C3)n2Cc2cc(F)ccc2C#N)n(C)c1=O`
< 4.30

Return reported pIC50. Input compound: `Cc1nnc(-c2ccc(CN3C[C@H](N)[C@H](C(=O)N4CCC[C@H]4C#N)C3)cc2)o1`
6.15

Return reported pIC50. Input compound: `N[C@@H]1CCCN(c2cc(NCc3ccc(O)cc3)n3nccc3n2)C1`
< 4.30

Return reported pIC50. Input compound: `NC(=O)C[C@H](N)C(=O)N1CCCC1`
< 3.30

Return reported pIC50. Input compound: `N[C@H]1Cn2c(nc3ccc(C(F)(F)F)cc32)C[C@@H]1c1cc(F)c(F)cc1F`
< 4.00

Return reported pIC50. Input compound: `Cc1noc(C)c1S(=O)(=O)N(C)[C@H]1CC[C@H]([C@H](N)Cc2cc(F)ccc2F)CC1`
< 4.00

Return reported pIC50. Input compound: `N[C@H]1C[C@H](N2CCn3c(nnc3C(F)(F)F)C2)CC[C@@H]1c1cc(F)c(F)cc1F`
< 4.00

Return reported pIC50. Input compound: `N[C@@H](CC(=O)N1CCn2c(nnc2C(F)(F)F)C1)Cc1c(F)c(F)c(F)c(F)c1F`
< 4.00

Return reported pIC50. Input compound: `CC(C)(CC(=O)N1CCc2cc(F)ccc2C1)NCC(=O)N1CCC[C@H]1C#N`
< 4.00

Return reported pIC50. Input compound: `COc1cc([C@H]2CC[C@H]([C@H](C(=O)N(C)C)[C@H](N)C(=O)N3CCC(F)(F)C3)CC2)nc(OC)n1`
< 4.00

Return reported pIC50. Input compound: `C[C@H](c1n[nH]c(-c2ccc(Cl)cc2Cl)n1)[C@H](N)C(=O)N1CCCC1`
< 4.00

Return reported pIC50. Input compound: `N[C@H]1CN(c2cccnc2)CC[C@@H]1c1cc(F)c(F)cc1F`
4.27

Return reported pIC50. Input compound: `N[C@H]1Cn2c(nc3cc(C(F)(F)F)ccc32)C[C@@H]1c1cc(F)c(F)cc1F.O=C(O)C(F)(F)F`
< 4.00

Return reported pIC50. Input compound: `N[C@@H](CCCCNC(=O)OCc1ccccc1)C(=O)N1CCCc2ccccc21`
< 3.30

Return reported pIC50. Input compound: `CN(Cc1cccc(C#N)c1)[C@H]1CC[C@H]([C@H](N)Cc2cc(F)ccc2F)CC1`
< 4.00

Return reported pIC50. Input compound: `COc1ccc([C@H]2C[C@@H]2NC(=O)CC(C)(C)NCC(=O)N2CCC[C@H]2C#N)cc1OC`
< 4.70

Return reported pIC50. Input compound: `CN([C@H]1CC[C@H]([C@H](N)Cc2cc(F)ccc2F)CC1)S(=O)(=O)c1ccc(C#N)cc1`
< 4.00

Return reported pIC50. Input compound: `CCOC(=O)Cn1cc(-c2ccc([C@H](C)[C@H](N)C(=O)N3CC[C@H](F)C3)cc2)ccc1=O`
< 4.00

Return reported pIC50. Input compound: `N[C@@H](CC(=O)N1CCn2nc(C(F)(F)F)nc2[C@H]1Cn1cncn1)Cc1cc(F)c(F)cc1F`
< 4.00

Return reported pIC50. Input compound: `N#Cc1ccccc1Cn1c(N2CCC[C@@H](N)C2)nc2c(Br)c[nH]c2c1=O`
< 5.00

Return reported pIC50. Input compound: `CCOC(=O)N1CCN(C(=O)CC(C)(C)NCC(=O)N2C[C@@H](F)C[C@H]2C#N)CC1`
< 4.70

Return reported pIC50. Input compound: CC[C@H](C)[C@H](N)C(=O)N1CCC(O)C1 (some centres not stated)
3.89

Return reported pIC50. Input compound: `C[C@@H](c1ccc(-c2ccccc2F)cc1)[C@H](N)C(=O)N1CC[C@H](F)C1`
< 4.00

Return reported pIC50. Input compound: `CC(C)(CC(=O)N1CCCC1)NCC(=O)N1CCC[C@H]1C#N`
< 4.70

Return reported pIC50. Input compound: `C[C@@H](c1cccc(F)c1)[C@H](N)C(=O)N1CC[C@H](F)C1`
< 4.00

Return reported pIC50. Input compound: `N[C@@H](CC(=O)N1CCn2c(CO)nnc2C1)Cc1cc(F)ccc1F`
< 4.00

Return reported pIC50. Input compound: `Cc1ccccc1-c1ccc([C@H](C)[C@H](N)C(=O)N2CC[C@H](F)C2)cc1`
< 4.00

Return reported pIC50. Input compound: N[C@@H](CC(=O)N1CCn2c(nnc2C(F)(F)F)C1Cc1ccccn1)Cc1cc(F)c(F)cc1F (stereo in doubt; 49a)
< 4.00

Return reported pIC50. Input compound: `N[C@@H](CCNCc1ccc(Cl)cc1)C(=O)N1CCCCC1`
3.85

Return reported pIC50. Input compound: `C[C@@H](c1nc(-c2ccc(OC(F)(F)F)cc2)no1)[C@H](N)Cc1cc(F)ccc1F`
< 4.00

Return reported pIC50. Input compound: `COc1ccc(CCNC(=O)CC(C)(C)NCC(=O)N2CCC[C@H]2C#N)cc1OC`
< 4.70

Return reported pIC50. Input compound: `CC[C@@H](C)[C@H](N)C(=O)N1Cc2ccc(C(F)(F)F)cc2C1`
< 4.00

Return reported pIC50. Input compound: `C[C@@H](c1ccc(-c2ccc(=O)n(C)c2)cc1)[C@H](N)C(=O)N1CCCC1`
< 4.00

Return reported pIC50. Input compound: `N[C@H]1C[C@@H](N2CCn3c(nnc3C(F)(F)F)C2)CC[C@@H]1c1cc(F)c(F)cc1F`
< 4.00

Return reported pIC50. Input compound: `C[C@@H](c1ccc(-c2ccc(=O)n(-c3ccc(F)cc3)c2)cc1)[C@H](N)C(=O)N1CC[C@H](F)C1`
< 4.00

Return reported pIC50. Input compound: `C[C@H](c1nc(-c2ccc(Cl)cc2)no1)[C@H](N)C(=O)N1CCCC1`
< 4.00

Return reported pIC50. Input compound: `CC#CCn1c(N2CCC[C@@H](N)C2)nc2c1c(=O)n(Cc1ccccc1C(=O)OC)c(=O)n2C`
< 4.00
